Reference source: the supplement of paper PMC13380429

Test system: Vero E6 infected with SARS-CoV-2
Assay: inhibition of SARS-CoV-2 cytopathic effect; higher = more antiviral protection, active = above 15
Conditions: 100 nM; 48 h
Quantity measured: inhibition of SARS-CoV-2 cytopathic effect (%)
State the answer as a number, implicitly in %.

These solved cases illustrate the format of a correct answer.
Cc1c(Cn2c(C)nc3c(C(=O)O)cc(N4CCOCC4)cc32)cccc1C(F)(F)F : 3.91
Cc1nc2c(O)cccc2c(=O)[nH]1 : -2.15
C=CCc1cc(OC)c(O)c(C(=O)NCCO)c1 [alibendol] : -0.53
COc1ccc(C2(CNC(=O)c3ccc(NC(=O)c4ccco4)cc3)CCOCC2)cc1 : -2.16
CCCCCCCCCCCCCCCCCCO : -2.3
CC(C)NCC(O)c1ccc([N+](=O)[O-])cc1 (stereo not given) : -1.08
NC(=O)CN1CCCC1=O : 3.28
COc1cccc(Nc2c(C(N)=O)cnc3c(C)cc(S(=O)(=O)c4cccc(C(=O)N(C)C)c4)cc23)c1 : 0.15
CC1(C)O[C@H]2CC(=O)OC[C@]23[C@H]2CC[C@@]4(C)[C@H](c5ccoc5)OC(=O)[C@H]5O[C@]54[C@]2(C)C(=O)C[C@@H]13 : -2.25
CC[C@H](C)C(=O)O[C@H]1C[C@H](O)C=C2C=C[C@H](C)[C@H](CC[C@@H](O)C[C@@H](O)CC(=O)O)[C@H]21 : 2.53

Now look at this entry.
What measured inhibition of SARS-CoV-2 cytopathic effect goes with Fc1ccc(C(c2ccccc2)(c2ccccc2F)n2ccnc2)cc1 (stereo not given) ?
-4.23

###

Tested on: Vero E6 infected with SARS-CoV-2
Assay: inhibition of SARS-CoV-2 cytopathic effect; higher = more antiviral protection, active = above 15
Details: 833.33 nM; 48 h
Quantity measured: inhibition of SARS-CoV-2 cytopathic effect (%)
Answer format: numeric, % implied, no suffix.

Please review the following examples before continuing.
O=C(c1ccc(C(=O)N2CCC(N3CCCC3)CC2)c(Nc2ccccc2)c1)N1CCC(N2CCCC2)CC1 : -4.9
CN[C@H](CC(C)C)C(=O)N[C@H]1C(=O)N[C@@H](CC(N)=O)C(=O)N[C@H]2C(=O)N[C@H]3C(=O)N[C@H](C(=O)N[C@H](C(=O)O)c4cc(O)cc(O)c4-c4cc3ccc4O)[C@H](O)c3ccc(c(Cl)c3)Oc3cc2cc(c3O[C@@H]2O[C@H](CO)[C@@H](O)[C@H](O)[C@H]2O[C@H]2C[C@](C)(N)[C@H](O)[C@H](C)O2)Oc2ccc(cc2Cl)[C@H]1O : 3.7

Look up inhibition of SARS-CoV-2 cytopathic effect for this compound: "CSCC[C@H](NC(=O)[C@H](CC(C)C)NC(=O)[C@@H](Cc1c[nH]c2ccccc12)NC(=O)[C@H](Cc1ccccc1)N(C)C(=O)[C@@H](Cc1c[nH]c2ccccc12)NC(=O)[C@@H](N)CCCNC(=N)N)C(N)=O"
1.24

I'd like to know its inhibition of SARS-CoV-2 cytopathic effect. The compound in question is OC[C@H]1O[C@@H](O[C@@H]2[C@@H](CO)OC(O)(CO)[C@H]2O)[C@H](O)[C@@H](O)[C@H]1O (mixture of isomers)
-1.79

Sample "O=S(=O)(O)c1ccc(O)cc1" — what was its inhibition of SARS-CoV-2 cytopathic effect?
-2.18

For CC1=C(C(=O)OC2CCCCC2)C(c2ccc([N+](=O)[O-])cc2)C2=C(CC(C)(C)CC2=O)N1 (centres undefined) , what is its reported inhibition of SARS-CoV-2 cytopathic effect?
1.14

Returns the measured inhibition of SARS-CoV-2 cytopathic effect for the input compound. Input: "CCOC(=O)[C@@H](N)Cc1ccc(O)c(O)c1"
0.72

Any idea what inhibition of SARS-CoV-2 cytopathic effect was measured for Nc1nccc2c1ncn2C1C=C(CO)C(O)C1O (centres undefined) ?
5.38
